System: Aspergillus niger
METHOD: Induction of GFP tagged PagsA expression in Aspergillus niger JvD1.1 at 104.2 ug/mL by fluorescence microscopy
Type: functional, organism-based
Calls of active or inactive are those of the source. No cut-off for these calls is given here.
Outcomes: Y = active, N = inactive

# COMPOUND, LABEL CLASS
records = [
    ("Cc1cc(C2CC2)nc(Nc2ccccc2)n1", "Y"),
    ("CCCN(CC)CC1COC2(CCC(C(C)(C)C)CC2)O1 (stereo unspecified)", "Y"),
    ("C[C@@H]1C[C@@H]([C@H](O)CC2CC(=O)NC(=O)C2)C(=O)[C@@H](C)C1", "N"),
    ("CN(C/C=C/C#CC(C)(C)C)Cc1cccc2ccccc12", "Y"),
    ("Fc1ccc([C@]2(Cn3cncn3)O[C@H]2c2ccccc2Cl)cc1", "N"),
    ("COC(=O)N(OC)c1ccccc1COc1ccn(-c2ccc(Cl)cc2)n1", "N"),
]
